Assay: protein stability index of a GFP-peptide fusion (GPS, HEK-293T) (PSI 1-6); higher = more stable;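 also: 24-mer peptide tiles fused after GFP, lentivirally expressed, FACS-sorted into six equal bins by GFP/DsRed ratio, decoded by Illumina sequencing, PSI is the read-weighted mean bin number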
Settings: treatment: DMSO; c terminus: a fixed tail appended
measured.quantity: protein stability index

                          sequence_data  endpoint_value
 0      APDFVGDILWEHLEQMIKENQEKT [ETS2]            4.44
 1     LNHGASVNNTTLTNSTPLRAACFD [FEM1C]            3.98
 2    GISGTTTKKGDLQWNAGEKKLTGG [SNAP91]            4.43
 3  MDALQLANSAFAVDLFKQLCEKEP [SERPINB5]             3.5
 4      EKKKGKAKKKRLTKADIGTPSNFQ [WASL]            4.62
 5      TVDCEPSDLFRLQEYNIPGVIQSV [CDS2]            3.01
 6     CVSIPDVVGWFVLFYKPGIVLLLA [GULP1]            2.63
 7    ICEDSFDGRSLSKLNLCEDGPCHK [SCARA5]            4.55
 8    SFCHGSSLKRHLKTHTGEKPHRCH [ZNF449]            3.45
 9     GALEALELSPPLSPASHVDVDLTI [FOXJ1]            3.17
10     ALHIIVQYNRPISDFLTLHSIIIS [FEM1B]            3.03
11      IKQDINSLNKQIAQLQDFVRAKGS [STX5]            3.25
12     SHSASATGNVCIEEIDVDGKFIRL [LMNB1]            3.14
13      HILKARKVLTEPEVRYYLRQIVSG [PLK2]            2.17
14     LVLKAHHDIVRFLVQLDDYRFASA [WDR41]            2.96
15   DGLDGISVGSYLDTLADDVPGHQT [LURAP1L]            5.12
16     ELDELQAAFEEFDTDRDGYISHRE [CABP4]            5.26
17   CLSTWLLHFIATNYLIFSQKPEFQ [RHOBTB3]            3.09
18  YSQGRLSEAEEALYLIAKRNRKLK [SLC22A15]            2.81
19    RHQRIHTGERPYECNECGKAFSRS [ZSCAN9]            3.29
20      VRFLEQQNAALRGELSQARGQEPA [PRPH]            4.57
21    SPEIMASVLNGKFANLIKEFVIID [CDC25A]            2.47
22    AQAHRIHIDPEIQDGSPTTSRRPS [PDLIM4]            5.31
23   DPSNRSFFSEIISSVSDVKFSHSG [PPP2R2C]            3.43
24   LIALANRFCLPHLVALAEQHAVQE [RHOBTB1]            3.16
25      QNAALRGELSQARGQEPARADQLC [PRPH]            5.12
26     PAEGEGRLGRCMRRLRDMVERPHS [KCNG1]            4.17
27    GLLQGTSAETSGGLLICLPREQAA [SEPHS2]            3.07
28      HVASLADDKMVRFWRIDEDYPVQV [WSB1]             2.4
29      GCLENMPEADCIPKEQLSTSFQWV [PLK2]            3.57
30    RVRVELQEQNGRLQAELAAQEALR [LRRC45]            4.58
31     SGLDSPSHAAPGPSPDSWVPRPGT [FCHO1]            4.08
32   VSPRRIFANGHTYHINSISVNSDC [PPP2R2C]            2.67
33     RAAQLQHSEKMAQYLEEERHMREE [CCDC6]            5.15
34     DYCKGGYHPVKIGDLFNGRYHVIR [SRPK2]            1.99
35    APSPSPVTPAQNNLLQPNFEAAFG [SNAP91]            4.43
36   GATAASETLSGHGPLAQPLTLQVL [ADAMTS4]            3.28
37    LFLRCSLRHKDEEEEDDDDIHITA [DRICH1]            3.03
